# Tested on: M14 melanoma
# methodSummary: NCI tumour cell line growth inhibition, 48 h
Rule: TGI under 10 µM gives NO, otherwise YES.

CCN(CC)CCCNc1ccc([N+](=O)[O-])c2nc3ccccc3c(N)c12 :: NO
Cc1cc(C)c2c(=O)n(CC(O)CN(Cc3ccccc3)CC(O)Cn3sc4nc(C)cc(C)c4c3=O)sc2n1 (centres undefined) :: YES
CN1CCN(C)C1c1ccc(C2N(C)CCN2C)cc1 :: YES
CCCCCCOC(=O)CC1=C(C)/C(=C/c2[nH]c(-c3ccc[nH]3)cc2OC)N=C1C :: NO
C[n+]1c2ccccc2c(N=[N+]=[N-])c2ccccc21 :: YES
COc1ccc(-c2cnc(-c3ccc(OC)cc3)n2-c2cc(OC)c(OC)c(OC)c2)cc1 :: YES
COCN1C(=O)[C@@H]2C[C@@H](O)CN2C(=O)c2ccccc21 :: YES
COc1ccc(OC)c(N2CC(O)=C(c3nc4ccccc4s3)C2=N)c1 :: YES

Item COc1ccc(O)c(/C=N\Nc2ccccc2)c1 with TGI of 10 µM or above? YES

Item S=C(NCCc1ccccn1)N/N=C(\c1ccccc1)c1ccccn1 with TGI of 10 µM or above? YES

Item O=C1OC2(c3ccc(O)cc3Oc3cc(O)ccc32)c2cccc3cccc1c23 with TGI of 10 µM or above? YES

Item COc1ccc2c(=O)c3ccoc3[nH]c2c1 with TGI of 10 µM or above? YES

Item c1cc[c]([Ge]([O]c2cccc3cccnc23)([c]2ccccc2)[c]2ccccc2)cc1 with TGI of 10 µM or above? YES

---

In this section, each of the molecules is paired with its reported GI50.
# Tested on: PC-3 prostate
# methodSummary: NCI tumour cell line growth inhibition, 48 h

Examples from the recorded data:
COc1cc2c(/C=C3\C(=O)N(C)c4ccccc43)c[nH]c2cc1C :: 2.56 µM
O=C(Nc1ccc(Cl)c(C(F)(F)F)c1)Nc1ccc(-c2cccnc2)cc1N1CCC(CO)CC1 :: 1.87 µM

Look up and report measured GI50 for this entry: CN1CCN(C)C1c1ccc(C2N(C)CCN2C)cc1 > 100 µM

Look up and report measured GI50 for this entry: Cc1[nH]c(C(=O)Nc2ccc(C(=O)NCCN)cc2OC(C)C)c(Cl)c1Cl 1.82 µM

---

# Tested on: OVCAR-4 ovarian
# methodSummary: NCI tumour cell line growth inhibition, 48 h; in the data active = GI50 below about 0.43 µM; inactive = the rest
Entry note: the call must match one of true (1) for active, false (0) for inactive

Example cases with answers are listed next.
NC(=O)c1cn(C2CC(O)C(CO)O2)c2ncnc(N)c12 (stereo not drawn) :: false (0)
COc1ccc(Nc2ncc(I)c(NCCCNC(=O)C3CCC3)n2)cc1 :: false (0)
CCOc1ccccc1/C=N\N=C(N/N=C/c1ccccc1OCC)N/N=C/c1ccccc1OCC :: false (0)
COC(=O)CCc1n(Cc2ccc3ccccc3c2)c2ccccc2[n+]1Cc1ccc2ccccc2c1 :: true (1)
CC(C)(C)c1cc(C[P+](c2ccccc2)(c2ccccc2)c2ccccc2)cc(C(C)(C)C)c1O :: true (1)

Which outcome was entered for the molecule COc1cc2c3c(n(CCCN=[N+]=[N-])c(=O)c2cc1OC)-c1ccccc1C3=O in this test? false (0)

Which outcome was entered for the molecule Oc1ccc(N=Nc2ccc(Br)cc2)c(O)c1 in this test? false (0)

Which outcome was entered for the molecule COc1cccc2c1C(=O)c1c(O)c3c(c(O)c1C2=O)C[C@](O)(C(=O)CO)C[C@H]3O[C@@H]1C[C@@H](NC(=O)CCCN(C)C2(c3ccc(F)cc3)CC3CCC2C3)[C@H](O)[C@@H](C)O1 (stereo partly drawn) in this test? false (0)

---

# System: CCRF-CEM leukemia
# methodSummary: NCI tumour cell line growth inhibition, 48 h
assayEndpoint: TGI

Examples from the recorded data:
Clc1cc(Br)ccc1-c1ccc(CNCC2CCNCC2)o1 :: 3.54 µM
COc1ccc(C(=O)/C=C/c2cc(-c3ccc(OC)c(OC)c3)n[nH]2)cc1OC :: 5.52 µM
CCOC(=O)c1c(NN2CCN(CC(F)(F)F)CC2)oc(/C=C2\C=Nc3ncccc32)c1O :: > 100 µM
O=C1c2cc3c(cc2CC12Cc1ccccc1C2)CCC3 :: 98.3 µM
Cc1[nH]c2ccccc2c1CO :: > 100 µM
COc1ccc2cc3c4cc(OC)c(OC)cc4ccn3c2c1 :: > 100 µM

# assay system CCRF-CEM leukemia: give TGI of COc1cc(/C=C2\CCC(C)C3=C2N=c2s/c(=C/c4ccc(Cl)cc4)c(=O)n2C3c2cc(OC)c(OC)c(OC)c2)cc(OC)c1OC (stereo not given) > 100 µM

# assay system CCRF-CEM leukemia: give TGI of ClCc1ccccc1Cn1cnc2nc(Cl)nc(Cl)c21 0.305 µM

# assay system CCRF-CEM leukemia: give TGI of N#C/C(c1nc2ccccc2[nH]1)=c1\s/c(=C/c2ccccc2)c(=O)n1-c1ccccc1 > 100 µM

---

# System: 786-0 renal
# methodSummary: NCI tumour cell line growth inhibition, 48 h; in the data active = GI50 below about 0.43 µM; inactive = the rest
Entry note: the call must match one of active, inactive

Nc1nc(Sc2ccc([N+](=O)[O-])c3nonc23)c2ncn(C3OC(CO)C(O)C3O)c2n1 (configuration not stated) :: inactive
c1cc(OCCN2CCCC2)ccc1CNc1ccc2nc(CCC3CCCCC3)[nH]c2c1 :: inactive
ClCc1ccccc1Cn1cnc2nc(Cl)nc(Cl)c21 :: active
COC(=O)c1c2c(c(C)[n+]([O-])c1C)C(=O)C(NCc1ccccc1)=CC2=O :: inactive
CCCCCCCCCCCCCCCCn1cc[n+](C)c1 :: inactive

Which outcome was entered for the molecule CC[C@]12CN3CCc4c([nH]c5ccccc45)[C@@](C(=O)OC)(c4cc5c(cc4OC)N(C)[C@H]4[C@@](O)(C(=O)OC)[C@H](OC(C)=O)[C@]6(CC)C=CCN7CC[C@]54[C@@H]76)CC(C3)[C@H]1O2 (some centres not stated) in this test? inactive

Which outcome was entered for the molecule O=C(Nc1ccc(I)cc1F)c1cc(Br)ccc1O in this test? inactive

Which outcome was entered for the molecule COc1cc2c3c(n(CCCN=[N+]=[N-])c(=O)c2cc1OC)-c1ccc(F)cc1C3=O in this test? inactive

Which outcome was entered for the molecule COc1cc2c3c(n(CCCN=[N+]=[N-])c(=O)c2cc1OC)-c1ccccc1C3=O in this test? inactive

Which outcome was entered for the molecule c1cc[c]([Ge]([O]c2cccc3cccnc23)([c]2ccccc2)[c]2ccccc2)cc1 in this test? inactive

Which outcome was entered for the molecule O=C(Nc1ccc(Cl)c(C(F)(F)F)c1)Nc1ccc(-c2cccnc2)cc1N1CCC(CO)CC1 in this test? inactive

Which outcome was entered for the molecule Clc1cc(Br)ccc1-c1ccc(CNCC2CCNCC2)o1 in this test? inactive

---

# System: LOX IMVI melanoma
# methodSummary: NCI tumour cell line growth inhibition, 48 h
assayEndpoint: GI50

Examples from the recorded data:
COC(=O)c1c2c(c(C)[n+]([O-])c1C)C(=O)C(NCc1ccccc1)=CC2=O :: 2.72 µM
COC(=O)CCc1n(Cc2ccc3ccccc3c2)c2ccccc2[n+]1Cc1ccc2ccccc2c1 :: 0.557 µM
Clc1ccc(-c2cnc3c(-c4ccnc(N5CCNCC5)c4)cnn3c2)cc1 :: 1.91 µM
COc1cc2c3c(n(CCCN=[N+]=[N-])c(=O)c2cc1OC)-c1ccccc1C3=O :: 1.33 µM
CCOc1ccccc1/C=N\N=C(N/N=C/c1ccccc1OCC)N/N=C/c1ccccc1OCC :: 1.8 µM
O=C1CN=C(c2ccc[nH]2)c2cc(Cl)ccc2N1 :: 17.9 µM

Look up and report measured GI50 for this entry: CCCCN(CCCC)P(=O)(Oc1ccccc1)Oc1ccccc1 12.9 µM

Look up and report measured GI50 for this entry: COc1cccc(/C=N\NC(=O)c2ccncc2)c1O 2.2 µM

---

In this section, each of the compounds is paired with its reported TGI.
# Tested on: SNB-19 CNS
# methodSummary: NCI tumour cell line growth inhibition, 48 h

O=C(COc1ccccc1)NNc1ccccc1 :: > 300 µM

# assay system SNB-19 CNS: give TGI of COC(=O)CN(CC(=O)NCCNC(=O)OC(C)(C)C)C1CCCCC1N(CC(=O)OC)CC(=O)OC (stereo not given) > 100 µM

# assay system SNB-19 CNS: give TGI of Cc1nnn(C)c1-c1cnc2c3ccc(C(C)(C)O)cc3n([C@H](c3ccccc3)C3CCOCC3)c2c1 > 100 µM

# assay system SNB-19 CNS: give TGI of C=CC12CCCCC1CC(C(=O)OC)=C(O)C2 (stereo not given) > 100 µM

# assay system SNB-19 CNS: give TGI of c1ccc(CSC(SCc2ccccc2)c2cccc3ccccc23)cc1 > 10 µM

---

# System: U251 CNS
# methodSummary: NCI tumour cell line growth inhibition, 48 h
In this section, each of the compounds is paired with its reported TGI.
Reply with just the number (in µM).

Cc1cc(C)c2c(=O)n(CC(O)CN(Cc3ccccc3)CC(O)Cn3sc4nc(C)cc(C)c4c3=O)sc2n1 (stereo unspecified) :: 30.6
COc1ccc(-c2cnc(-c3ccc(OC)cc3)n2-c2cc(OC)c(OC)c(OC)c2)cc1 :: 69.2
CCOC(=O)c1c(NN2CCN(CC(F)(F)F)CC2)oc(/C=C2\C=Nc3ncccc32)c1O :: 28

Shift focus to the following entry.
Look up and report measured TGI for this entry: Cc1cc(-c2nc3sc(C)cn3c2/C=N/N=C(N)N)c(C)s1 25.5
